B1: FBXO3 (parent)
chain: AGGFQQRQGLKYCLPLTFCIHTGL

# Variants of: B1
# measurement_protocol: protein stability index of a GFP-peptide fusion (GPS, HEK-293T) (PSI 1-6); higher = more stable;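 also: lentivirally expressed fusions sorted by FACS into six bins by GFP to DsRed ratio, PSI derived from sequencing read proportions per bin multiplied by bin number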
# experimental_parameters: c terminus: a fixed tail appended
The label depends only on protein stability index: Criterion met if it is at least 3, Criterion not met if it is smaller.

>  <var>
F18Y

>  <label_class>
Criterion not met

$$$$

Does protein stability index meet or surpass 3 for L16N ?
Criterion not met

Does protein stability index meet or surpass 3 for Q5H ?
Criterion not met

Does protein stability index meet or surpass 3 for F4A ?
Criterion met

Does protein stability index meet or surpass 3 for L10W ?
Criterion met

Does protein stability index meet or surpass 3 for A1N ?
Criterion not met

Does protein stability index meet or surpass 3 for T22P ?
Criterion met

Origin of the recorded values: the supplement of paper PMC10567573
